Numbers sourced from paper doi:10.1101/2023.12.14.571518.

Molecular target: MZT2:GST-GCP2-NHD (human, UniProt Q6P582 1-158; Q9BSJ2 1-110)
Sequence (Q6P582 whole entry, chain 1 of 2): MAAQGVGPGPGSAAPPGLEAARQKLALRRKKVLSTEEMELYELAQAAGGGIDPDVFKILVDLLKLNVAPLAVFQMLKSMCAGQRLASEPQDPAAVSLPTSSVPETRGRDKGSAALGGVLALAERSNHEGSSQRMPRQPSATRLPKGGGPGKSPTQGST
Sequence (Q9BSJ2 1-110, chain 2 of 2): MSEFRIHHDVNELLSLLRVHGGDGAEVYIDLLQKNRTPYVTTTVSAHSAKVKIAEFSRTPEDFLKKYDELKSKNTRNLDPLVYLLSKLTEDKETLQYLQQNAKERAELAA
Assay: pull-down
Metric Name: Kd

## Input What does the record list as Kd for CDK5RAP2(44-93) (domain or fragment, human) SNIGSGGTPSTGSSLPNVSEETVSPTRARNMKDFENQITELKKENFNLKLRIYFLEERMQQEFH ?
## Output ≥ 10 µM
